# assay_system: T1, human amylin receptor (amylin 3(a) receptor: human calcitonin receptor coexpressed with RAMP-3) (human, UniProt P30988 25-474; O60896 24-148)
# T1 construct: whole, on cells; the functional assay (Assay II a) on whole cells; the complex is called human; also called hAmylin-R; hAmylinR
# T1 sequence (looked up) 1: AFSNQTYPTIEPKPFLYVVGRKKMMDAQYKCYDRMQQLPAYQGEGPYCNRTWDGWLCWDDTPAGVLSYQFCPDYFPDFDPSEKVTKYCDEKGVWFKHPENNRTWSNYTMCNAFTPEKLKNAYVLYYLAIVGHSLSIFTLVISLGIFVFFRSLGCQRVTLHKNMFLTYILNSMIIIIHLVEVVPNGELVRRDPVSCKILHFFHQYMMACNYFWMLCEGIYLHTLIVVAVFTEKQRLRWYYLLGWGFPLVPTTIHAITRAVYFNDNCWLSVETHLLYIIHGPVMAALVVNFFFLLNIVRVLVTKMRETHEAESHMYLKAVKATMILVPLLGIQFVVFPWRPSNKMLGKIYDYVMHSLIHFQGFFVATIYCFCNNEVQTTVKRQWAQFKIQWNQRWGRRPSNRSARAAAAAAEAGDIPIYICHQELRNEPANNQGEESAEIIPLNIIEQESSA
# T1 sequence (looked up) 2: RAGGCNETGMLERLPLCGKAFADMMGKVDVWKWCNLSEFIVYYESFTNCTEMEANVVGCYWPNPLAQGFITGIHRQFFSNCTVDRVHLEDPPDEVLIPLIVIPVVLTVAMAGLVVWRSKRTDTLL
# procedure_details: SPA competition against 125I-rat amylin, membranes of BHK amylin 3(a)/CRE-luc cells (Assay V)
Numbered stars: 1 amine (or outer) side, 2 acyl side, 3 side chain; on linkers, the order of the positions; unused ones are H or OH. Bridge positions count the residues as written; N and C are the ends. Side chains are listed from the residue outwards. Ends that are not written are not given here. * marks the point of attachment. C20 diacid = O=C(O)CCCCCCCCCCCCCCCCCCC(=O)*; γGlu = O=C(O)[C@H](CCC(=O)[*:2])N[*:1]
readout_type: IC50

Entry K([γGlu-γGlu-C20 diacid])CNTATCATQRLAEFLRHSSNNPGAILSSTNVGPETY-NH2 (disulfide 2-7) — recorded IC50 = 1.19 nM
